- System: MOLT-4 leukemia
- experimental_protocol: NCI-60 one-dose screen, 48 h
- protocol_conditions: 10 µM unless noted
This is part of a sample that, as a whole, favours compounds with a hit. Of some 83,000 tested, about 20% had one in any assay. Calls of active or inactive are those of the source. The calls were made as follows: active = growth percent below 10; inactive = the rest.
Outcome codes: active, inactive

| compound | assigned_class |
| --- | --- |
| COc1cc(OC)c(NC(=O)C(Sc2nc(C)cc(C)c2C#N)c2ccccc2)cc1Cl (stereo unspecified) | inactive |
| CN=S(=O)(OCCCCCOS(=O)(=NC)c1ccc(C)cc1)c1ccc(C)cc1 (stereo unspecified) | inactive |
| N=C(N)c1nn(C2OC(CO)C(O)C2O)c2nc[nH]c(=O)c12 (stereo unspecified) | active |
| CNc1ccccc1C(=O)N/N=C/C=C/c1ccccc1 | inactive |
| CSc1nsc(N)n1 | inactive |
| CC(c1ccccc1)N1C(=O)CSC1=S (stereo unspecified) | inactive |

---

- System: A549/ATCC NSCLC
- experimental_protocol: NCI-60 one-dose screen, 48 h (100 = growth as untreated, 0 = no growth, -100 = all killed)
- protocol_conditions: 10 µM unless noted
About 83,000 compounds went through this panel and 20% of them were active in at least one assay; those are over-represented in the sample as a whole.

| molecule | units_of_measure | growth |
| --- | --- | --- |
| Clc1cccc(Cl)c1CSc1nc2ccccc2n2cccc12 | % | 95.4 |
| CC(C)N(CCCC#N)C(C)C | % | 93.9 |
| CC1CCC(C)(C)c2ccccc21 (centres undefined) | % | 98.2 |
| ClCC(Cl)C1CCC(Cl)C(Cl)C1 (centres undefined) | % | 98.2 |
| COC1(OC)C2(Cl)C(Cl)=C(Cl)C1(Cl)C1COCC12 (centres undefined) | % | 64 |
| CC(=O)C[n+]1ccc(C)cc1Sc1ccccc1C | % | 112 |
| O=C(O)c1cc(I)ccc1O | % | 93.3 |
| CCCC(=O)CC(=O)c1ccccc1 | % | 97.9 |
| CC(=O)Nc1ccc(/C=C2\SC(=S)N(/C=C(\C(C)=O)C(N)=O)C2=O)cc1 | % | 84.9 |
| N#CCCN1C(=O)CCC1C(=O)O (centres undefined) | % | 103 |
| Cc1onc(-c2ccccc2Cl)c1C(=O)Cl | % | 96.9 |
| CCOc1ccccc1NC(=O)CCl | % | 100 |
| CC(=O)c1cccc(N(C)S(=O)(=O)c2ccc(C)cc2)c1 | % | 95.9 |
| Cc1cc(NC(=O)c2ccccc2)c(Cl)cc1N | % | 99.4 |

---

Attribute: growth
- Test system: SF-539 CNS
- experimental_protocol: NCI-60 one-dose screen, 48 h (100 = growth as untreated, 0 = no growth, -100 = all killed)
- protocol_conditions: 10 µM unless noted
About 83,000 compounds went through this panel and 20% of them were active in at least one assay; those are over-represented in the sample as a whole. The source made the active and inactive calls. How the source made its calls: active means growth percent below 10; inactive means the rest.

| molecule | growth |
| --- | --- |
| COc1ccc(Nc2cc(Cl)ccc2C(=O)O)cn1 | 105% (inactive) |
| CCCC(=O)c1cccs1 | 93.7% (inactive) |
| CCCCCC#CC(=O)O | 103% (inactive) |
| CN1CCCN(C(c2ccccc2)c2ccc(Br)cc2)CC1 (centres undefined) | 75.2% (inactive) |
| CCOc1ccc(C(=O)O)cc1 | 106% (inactive) |
| COCC(N)=O | 96% (inactive) |
| CCN(CC)CCCC(C)NC(=S)N/N=C(\C)c1ccccn1 (centres undefined) | 31.2% (inactive) |
| CC(=O)C1C(=O)C(=O)N(c2cccc([N+](=O)[O-])c2)C1=O (centres undefined) | 108% (inactive) |
| NNC(=O)c1ccccc1N | 112% (inactive) |
| CCOC(=O)N[C@H]1CCc2cc(OC)c(OC)c(OC)c2-c2ccc(SC)c(=O)cc21 | -21.9% (active) |
| CC1CCC(C)(C)c2ccccc21 (centres undefined) | 97.2% (inactive) |
| O=S(Cc1ccccc1)/C(=C/NC(=S)Nc1ccccc1)c1ccccc1 (centres undefined) | 99.7% (inactive) |
| COc1ccc(C)cc1NC(=O)SC(C)C | 97.6% [100 µM] (inactive) |
| Cc1ccc([N+](=O)[O-])c(C)n1 | 89.5% (inactive) |
| NC(=O)c1cc2c3ccccc3ccn2c1-c1ccccc1 | -19.7% (active) |
| NC(=S)N/N=C/c1ccc(Cl)cc1 | 106% (inactive) |
| CC1CC2C3CCC4=CC(=O)CCC4(C)C3CCC2(C)C1(O)C(=O)CO (centres undefined) | 107% (inactive) |
| CCOC(=O)c1cc(C)[nH]c(=O)c1C#N | 95.6% (inactive) |
| Oc1cc(O)c2c(c1)O[C@H](c1ccc(O)c(O)c1)[C@@H](O)C2 | 111% (inactive) |
| NCC(O)C(O)C(O)C(O)CO (centres undefined) | 101% (inactive) |
| CC1(C)CC(=O)C=C(N)C1 | 127% (inactive) |
| CCOC(=O)c1c[nH][nH]c1=O | 94.9% (inactive) |
| CC(=O)c1cc(O)ccc1O | 92.5% (inactive) |
| COc1nc2ccccc2s1 | 90.7% (inactive) |
| COc1nc(Nc2cccc(C(F)(F)F)c2)nc(OC)n1 | 98% (inactive) |
| CC(=O)C1C(=O)C(=O)N(c2ccc(Cl)c(Cl)c2)C1=O (centres undefined) | 99.5% (inactive) |
| CC(C)c1ccccc1NC(=O)N1CCC(C(C)C)CC1 | 111% (inactive) |
| Nc1ccn(C2CC(N)C(CO)O2)c(=O)n1 (centres undefined) | 76.3% (inactive) |
| COc1ccc(C2CCCCC2=O)cc1 (centres undefined) | 102% (inactive) |
